Hey, just so you know, these numbers are from the supplement of paper PMC5998384.

test system: HeLa Kyoto; assay: solubility in G1/S (NP-40 vs SDS abundance) (log2 ratio); higher = more soluble; details: cell cycle stage: G1/S
endpoint: solubility in G1/S (log2)
Reply with just the number.

# annotated cases, reported solubility in G1/S (log2) shown
MSVGFIGAGQLAFALAKGFTAAGVLAAHKIMASSPDMDLATVSALRKMGVKLTPHNKETVQHSDVLFLAVKPHIIPFILDEIGADIEDRHIVVSCAAGVTISSIEKKLSAFRPAPRVIRCMTNTPVVVREGATVYATGTHAQVEDGRLMEQLLSSVGFCTEVEEDLIDAVTGLSGSGPAYAFTALDALADGGVKMGLPRRLAVRLGAQALLGAAKMLLHSEQHPGQLKDNVSSPGGATIHALHVLESGGFRSLLINAVEASCIRTRELQSMADQEQVSPAAIKKTILDKVKLDSPAGTALSPSGHTKLLPRSLAPAGKD [PYCR1]	0.208
MVAVLGGRGVLRLRLLLSALKPGIHVPRAGPAAAFGTSVTSAKVAVNGVQLHYQQTGEGDHAVLLLPGMLGSGETDFGPQLKNLNKKLFTVVAWDPRGYGHSRPPDRDFPADFFERDAKDAVDLMKALKFKKVSLLGWSDGGITALIAAAKYPSYIHKMVIWGANAYVTDEDSMIYEGIRDVSKWSERTRKPLEALYGYDYFARTCEKWVDGIRQFKHLPDGNICRHLLPRVQCPALIVHGEKDPLVPRFHADFIHKHVKGSRLHLMPEGKHNLHLRFADEFNKLAEDFLQ [BPHL]	0.0569

Now let's try a different one.
Task: Would you kindly share the measured solubility in G1/S (log2) for MASSSGNDDDLTIPRAAINKMIKETLPNVRVANDARELVVNCCTEFIHLISSEANEICNKSEKKTISPEHVIQALESLGFGSYISEVKEVLQECKTVALKRRKASSRLENLGIPEEELLRQQQELFAKARQQQAELAQQEWLQMQQAAQQAQLAAASASASNQAGSSQDEEDDDDI [DR1] ?
Result: -0.174

---

system: HeLa Kyoto; test: melting temperature (median over replicates), in situ; higher = more thermally stable; settings: cell cycle stage: G1/S
# maps each entry to its melting temperature
Please reply with the bare figure in °C and do not write the unit itself.

Task: Would you kindly share the measured melting temperature for MFTSTGSSGLYKAPLSKSLLLVPSALSLLLALLLPHCQKLFVYDLHAVKNDFQIWRLICGRIICLDLKDTFCSSLLIYNFRIFERRYGSRKFASFLLGSWVLSALFDFLLIEAMQYFFGITAASNLPSGFLAPVFALFVPFYCSIPRVQVAQILGPLSITNKTLIYILGLQLFTSGSYIWIVAISGLMSGLCYDSKMFQVHQVLCIPSWMAKFFSWTLEPIFSSSEPTSEARIGMGATLDIQRQQRMELLDRQLMFSQFAQGRRQRQQQGGMINWNRLFPPLRQRQNVNYQGGRQSEPAAPPLEVSEEQVARLMEMGFSRGDALEALRASNNDLNVATNFLLQH [UBAC2] ?
Result: 50.4

Task: Would you kindly share the measured melting temperature for MASVGECPAPVPVKDKKLLEVKLGELPSWILMRDFSPSGIFGAFQRGYYRYYNKYINVKKGSISGITMVLACYVLFSYSFSYKHLKHERLRKYH [ATP5J2] ?
Result: 53

Task: Would you kindly share the measured melting temperature for MAGDSEQTLQNHQQPNGGEPFLIGVSGGTASGKSSVCAKIVQLLGQNEVDYRQKQVVILSQDSFYRVLTSEQKAKALKGQFNFDHPDAFDNELILKTLKEITEGKTVQIPVYDFVSHSRKEETVTVYPADVVLFEGILAFYSQEVRDLFQMKLFVDTDADTRLSRRVLRDISERGRDLEQILSQYITFVKPAFEEFCLPTKKYADVIIPRGADNLVAINLIVQHIQDILNGGPSKRQTNGCLNGYTPSRKRQASESSSRPH [UCK2] ?
Result: 52.2

Task: Would you kindly share the measured melting temperature for MSLLLLLLLVSYYVGTLGTHTEIKRVAEEKVTLPCHHQLGLPEKDTLDIEWLLTDNEGNQKVVITYSSRHVYNNLTEEQKGRVAFASNFLAGDASLQIEPLKPSDEGRYTCKVKNSGRYVWSHVILKVLVRPSKPKCELEGELTEGSDLTLQCESSSGTEPIVYYWQRIREKEGEDERLPPKSRIDYNHPGRVLLQNLTMSYSGLYQCTAGNEAGKESCVVRVTVQYVQSIGMVAGAVTGIVAGALLIFLLVWLLIRRKDKERYEEEERPNEIREDAEAPKARLVKPSSSSSGSRSSRSGSSSTRSTANSASRSQRTLSTDAAPQPGLATQAYSLVGPEVRGSEPKKVHHANLTKAETTPSMIPSQSRAFQTV [CLMP] ?
Result: 55

Task: Would you kindly share the measured melting temperature for MQAALEVTARYCGRELEQYGQCVAAKPESWQRDCHYLKMSIAQCTSSHPIIRQIRQACAQPFEAFEECLRQNEAAVGNCAEHMRRFLQCAEQVQPPRSPATVEAQPLPAS [CHCHD5] ?
Result: 53.5

Task: Would you kindly share the measured melting temperature for MEADASVDMFSKVLEHQLLQTTKLVEEHLDSEIQKLDQMDEDELERLKEKRLQALRKAQQQKQEWLSKGHGEYREIPSERDFFQEVKESENVVCHFYRDSTFRCKILDRHLAILSKKHLETKFLKLNVEKAPFLCERLHIKVIPTLALLKDGKTQDYVVGFTDLGNTDDFTTETLEWRLGSSDILNYSGNLMEPPFQNQKKFGTNFTKLEKKTIRGKKYDSDSDDD [TXNDC9] ?
Result: 52.4
